Target: UniProt:Q9HCG7
Sequence (Q9HCG7 whole entry): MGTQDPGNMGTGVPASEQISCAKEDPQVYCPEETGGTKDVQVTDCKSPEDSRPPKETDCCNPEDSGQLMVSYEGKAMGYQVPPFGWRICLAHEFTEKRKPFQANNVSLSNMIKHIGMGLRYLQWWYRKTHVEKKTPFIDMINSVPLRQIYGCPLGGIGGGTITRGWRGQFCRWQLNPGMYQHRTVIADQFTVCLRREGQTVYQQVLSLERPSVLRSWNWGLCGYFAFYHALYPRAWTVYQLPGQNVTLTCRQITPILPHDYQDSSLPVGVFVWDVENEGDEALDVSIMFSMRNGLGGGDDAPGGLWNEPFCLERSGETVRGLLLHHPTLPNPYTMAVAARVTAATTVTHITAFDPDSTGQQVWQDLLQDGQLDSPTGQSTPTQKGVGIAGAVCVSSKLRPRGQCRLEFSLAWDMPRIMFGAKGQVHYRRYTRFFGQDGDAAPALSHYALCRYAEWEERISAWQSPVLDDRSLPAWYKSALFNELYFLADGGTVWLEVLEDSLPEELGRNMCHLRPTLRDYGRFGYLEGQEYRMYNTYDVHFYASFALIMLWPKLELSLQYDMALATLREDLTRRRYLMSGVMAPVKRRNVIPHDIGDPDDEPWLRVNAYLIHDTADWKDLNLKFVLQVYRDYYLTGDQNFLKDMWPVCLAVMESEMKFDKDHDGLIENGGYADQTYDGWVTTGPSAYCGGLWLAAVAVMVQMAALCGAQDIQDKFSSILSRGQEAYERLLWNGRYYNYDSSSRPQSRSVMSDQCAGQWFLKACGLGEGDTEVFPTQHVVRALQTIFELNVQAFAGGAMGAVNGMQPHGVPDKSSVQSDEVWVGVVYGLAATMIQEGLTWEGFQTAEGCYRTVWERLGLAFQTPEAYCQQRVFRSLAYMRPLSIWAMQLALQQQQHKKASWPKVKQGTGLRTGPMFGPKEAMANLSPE
Literature survey of IC50 (system: UniProt:Q9HCG7).
OBSERVABLE: IC50 (µM)

CCCCN1CC=C[C@H](O)[C@@H]1CO
25

P. CCCCCCOCCCCCN1CC(O)C(O)C(O)C1CO (racemic)
Q. OC[C@H]1[C@@H](O)[C@H](O)[C@@H](O)CN1CCCC/C=C\C12CC3CC(CC(C3)C1)C2
R. OC[C@@H]1[C@@H](O)[C@H](O)[C@@H](O)CN1CCCC/C=C\C12CC3CC(CC(C3)C1)C2
S. COc1ccccc1-c1ccc(COCCCCCN2C[C@H](O)[C@@H](O)[C@H](O)[C@H]2CO)cc1
T. OC[C@@H]1[C@@H](O)[C@H](O)[C@@H](O)CN1CCCCCCOCC12CC3CC(CC(C3)C1)C2
Order by IC50, ascending. // respond by listing labels in the order requested
P, T, S, R, Q
(P: 0.001 µM, T: 0.002 µM, S: 0.003 µM, R: 0.005 µM, Q: 0.008 µM)
